experiment.description: Toxicity liver stage against HepG2, at 10uM
Format: cell-based
Parameters: test concentration 10 uM, cell line HepG2-A16-CD81EGFP
recorded.conditions: human, HepG2-A16-CD81EGFP cells; read-out: INHIBITION
List of cytotoxicity at 10 µM values.
Provide the reading as a plain figure in %.

Req: Give cytotoxicity at 10 µM for COCCc1noc(CN2CCCC2Cn2nc(C)nc2C)n1 (centres undefined)
Resp: -1.39

Req: Give cytotoxicity at 10 µM for Cc1c(OCC(=O)NCc2ccccc2)c(=O)ccn1C
Resp: -49.9

Req: Give cytotoxicity at 10 µM for CCO[C@H]1CN(C)C[C@@H]1NC(=O)c1cc(C)nc2c(C)cccc12
Resp: 3.28

Req: Give cytotoxicity at 10 µM for Cc1nc(Nc2ccc(Cl)cn2)sc1C(=O)NCCCN1CCCCC1
Resp: 1.66

Req: Give cytotoxicity at 10 µM for CCN(CC(=O)Nc1c(C)nn(C)c1C)CC(O)c1ccc(C)cc1 (centres undefined)
Resp: -8.14

Req: Give cytotoxicity at 10 µM for CCc1nc(CC(=O)N2CCC(C(=O)N3CCCCC3)CC2)cs1
Resp: 4.92

Req: Give cytotoxicity at 10 µM for CCC1=N[C@@]2(CC[C@@H]3CN(S(=O)(=O)CC)C[C@@H]32)C(=O)N1CC(C)C
Resp: -0.0582

Req: Give cytotoxicity at 10 µM for Cc1cc(CN2C[C@@H]3COC[C@@H](C(=O)N4CCCCO4)[C@@H]3C2)oc1C
Resp: -72.8

Req: Give cytotoxicity at 10 µM for Cc1noc2nc(C3CCN(Cc4cccnc4)CC3)cc(C(F)F)c12
Resp: -2.5

Req: Give cytotoxicity at 10 µM for O=C(NCc1nncn1C1CC1)C1(c2ccc(F)cc2)CCCC1
Resp: -1.89

Req: Give cytotoxicity at 10 µM for NC(=O)c1ccc2c(c1)nc1n2CCN(Cc2ccccc2)C1
Resp: -8.8

Req: Give cytotoxicity at 10 µM for CCOCC(O)CN1CCN(C(=O)c2ccnc(N(C)C)c2)CC1 (centres undefined)
Resp: -3.47

Req: Give cytotoxicity at 10 µM for NS(=O)(=O)c1cnn(-c2ccc(NC(=O)C3CCCCC3)cn2)c1
Resp: 2.27

Req: Give cytotoxicity at 10 µM for Cc1ccc(CNCCN2CCOCC2)o1
Resp: -2.62

---

experiment.description: Toxicity liver stage against HepG2, at 10uM
Format: cell-based
Parameters: test concentration 10 uM, cell line HepG2-A16-CD81EGFP
recorded.conditions: human, HepG2-A16-CD81EGFP cells; read-out: INHIBITION
experimental.readout: cytotoxicity at 10 µM (%)
Provide the reading as a plain figure in %.

Known cytotoxicity at 10 µM results, listed for orientation:
- CS(=O)(=O)NC1CCN(C(=O)c2ccc(Br)cc2)C1 (stereo not drawn): 4.94
- Cc1nnc(NC(=O)N2CCCN(C3CCCC3)CC2)s1: -3.16
- CC(Nc1ncnc2sccc12)c1cnn(C)c1 (stereo not drawn): -2.63
- CNc1cnc(CC2COCCN(Cc3ccccc3)C2)cn1 (stereo not drawn): 10.9
- CCc1ccccc1C(=O)N1C[C@@H](CN2CCOCC2)[C@@H](CO)C1: -0.125

Req: Give cytotoxicity at 10 µM for CCO[C@H]1CCN(S(=O)(=O)c2cn(C)cn2)[C@H]1Cc1ccccc1
Resp: 7.95

Req: Give cytotoxicity at 10 µM for Cc1cccc(CN2C[C@@H]3COC[C@]3(CNC(=O)c3cccn3C)C2)n1
Resp: -5.64

Req: Give cytotoxicity at 10 µM for CCC(=O)c1cccc(S(=O)(=O)NC(C)C#N)c1 (stereo not drawn)
Resp: 3.73

Req: Give cytotoxicity at 10 µM for CCC(=O)NC1CCN(c2cccc(OC(F)(F)F)c2)C1=O (stereo not drawn)
Resp: -11.5

Req: Give cytotoxicity at 10 µM for CN(Cc1cnc2ccccc2c1)C(=O)C(c1ccccc1F)N(C)C (stereo not drawn)
Resp: -6.88

Req: Give cytotoxicity at 10 µM for O=C(N1CCCC(n2cncn2)C1)C1(c2ccc(Cl)cc2)CCC1 (stereo not drawn)
Resp: -2.11

Req: Give cytotoxicity at 10 µM for CN(Cc1nnc2ccccn12)C(=O)CC1CCCCC1
Resp: 13.7

Req: Give cytotoxicity at 10 µM for Cc1ccc(CNC(C)c2ccc(OCC(=O)NC3CC3)cc2)o1 (stereo not drawn)
Resp: 2.07

Req: Give cytotoxicity at 10 µM for Cc1cc(CNC2(c3ccc(Cl)cc3)CC2)no1
Resp: 1.5

Req: Give cytotoxicity at 10 µM for CC(C)CN1CCC2(CC1)CN(C(=O)C(C)C)C2
Resp: -2.16

Req: Give cytotoxicity at 10 µM for Fc1cccc(CN2CCN(Cc3cscn3)CC2)c1
Resp: -0.612

Req: Give cytotoxicity at 10 µM for CCN1CCOCC12CCN(c1cnccn1)CC2
Resp: -111

Req: Give cytotoxicity at 10 µM for CCn1cnnc1Cn1cccc(C(F)(F)F)c1=O
Resp: -9.8

---

List of cytotoxicity at 10 µM values.
experiment.description: Toxicity liver stage against HepG2, at 10uM
Format: cell-based
Design: test concentration 10 uM, cell line HepG2-A16-CD81EGFP
recorded.conditions: human, HepG2-A16-CD81EGFP cells; read-out: INHIBITION
Provide the reading as a plain figure in %.

Req: Give cytotoxicity at 10 µM for COc1ccc2c3c1CN(C(C)=O)CC3=CC(C)(C)CO2
Resp: 10.1

Req: Give cytotoxicity at 10 µM for CNC(=O)c1cc2c(nc1N(C)C)CCN(c1ncc(C)cn1)CC2
Resp: -119

---

experiment.description: Toxicity liver stage against HepG2, at 10uM
Format: cell-based
Design: test concentration 10 uM, cell line HepG2-A16-CD81EGFP
recorded.conditions: human, HepG2-A16-CD81EGFP cells; read-out: INHIBITION
experimental.readout: cytotoxicity at 10 µM (%)
Provide the reading as a plain figure in %.

Known cytotoxicity at 10 µM results, listed for orientation:
• Cc1cc(-c2cnc(NC3CCCC3)nc2-c2ccco2)on1 = -7.56
• CCOc1ccc(CN2CCCC(c3cc4ncccc4[nH]3)C2)cc1 (stereo not given) = 1.18
• c1cncc(COCC2CN(Cc3ccco3)Cc3nccn3C2)c1 (stereo not given) = -157
• Cc1cccc(C(=O)N2CCN(c3ccc(-n4cccc4)nn3)CC2)c1 = 67.1
• O=S(=O)(NCCc1nc(-c2cccnc2)n[nH]1)NCc1ccccc1 = 7.02

Req: Give cytotoxicity at 10 µM for Fc1ccccc1-c1noc2c1CN(CC1CC1)CC2
Resp: -15.4

Req: Give cytotoxicity at 10 µM for COc1ccccc1CC(=O)NS(=O)(=O)c1ccc(C(N)=O)cc1
Resp: -5.2

Req: Give cytotoxicity at 10 µM for O=C(c1ccccc1)N1CCN(CC(O)c2ccc(F)cc2)CC1 (stereo not given)
Resp: -8.24

Req: Give cytotoxicity at 10 µM for CCN1CCN(Cc2coc(-c3cccc(F)c3)n2)CC1
Resp: -7.75

Req: Give cytotoxicity at 10 µM for Cc1ccc(C)c(S(=O)(=O)CCN2CCCC2Cn2cccn2)c1 (stereo not given)
Resp: -8.78

Req: Give cytotoxicity at 10 µM for Cc1ccccc1S(=O)(=O)NC(=O)CSc1ccc2c(c1)OCCO2
Resp: -1.85

---

experiment.description: Toxicity liver stage against HepG2, at 10uM
Format: cell-based
Parameters: test concentration 10 uM, cell line HepG2-A16-CD81EGFP
recorded.conditions: human, HepG2-A16-CD81EGFP cells; read-out: INHIBITION
experimental.readout: cytotoxicity at 10 µM (%)
Provide the reading as a plain figure in %.

Known cytotoxicity at 10 µM results, listed for orientation:
* CC(C)c1nn(C)c(N2CCOCC2)c1CNCc1cscn1 | -3.83
* CS(=O)(=O)NC1CCN(C(=O)c2cnc(-c3cccnc3)nc2)CC1 | -6.47

Req: Give cytotoxicity at 10 µM for COc1ccccc1OC1(C(=O)O)CCN(c2nccnc2OC)CC1
Resp: -6.25

Req: Give cytotoxicity at 10 µM for O=C(Nc1nccs1)N(CCO)Cc1ccsc1
Resp: 1.4

Req: Give cytotoxicity at 10 µM for CC(C)NC(=O)NCCCOC1CCOCC1
Resp: -17

---

experiment.description: Toxicity liver stage against HepG2, at 10uM
Type: cell-based
Design: test concentration 10 uM, cell line HepG2-A16-CD81EGFP
recorded.conditions: human, HepG2-A16-CD81EGFP cells; read-out: INHIBITION
experimental.readout: cytotoxicity at 10 µM (%)
Provide the reading as a plain figure in %.

Known cytotoxicity at 10 µM results, listed for orientation:
* O=C(NCCn1ccnc1)c1cncc(Br)c1 | 17.7
* CCc1ncc(CN2C[C@@H]3CC[C@H]2CN(C(=O)C2CCC2)C3)cn1 | 4.96
* COc1ccc(N(C)Cc2nc3c(cnn3C)c(=O)[nH]2)cc1OC | -10.7
* Cc1n[nH]c(=O)c2c(NC(=O)CN3CCOCC3C)oc(C)c12 (centres undefined) | -0.219

Req: Give cytotoxicity at 10 µM for Cc1cccc(N2CC[C@@H]3[C@@H](CO[C@H]3CNC(=O)c3ccco3)C2)n1
Resp: -1.67

Req: Give cytotoxicity at 10 µM for Cn1nc(C(=O)NC2(c3ccc(Cl)cc3)CCCC2)ccc1=O
Resp: -4.47

Req: Give cytotoxicity at 10 µM for COc1ccc(Cl)c(-c2noc3ncn(CCC(=O)O)c(=O)c23)c1
Resp: 7.25

Req: Give cytotoxicity at 10 µM for CSc1sc(NC(=O)C2CCCN(C(N)=O)C2)nc1C (centres undefined)
Resp: 6.08

Req: Give cytotoxicity at 10 µM for C=C(C)COc1cccc(C(=O)N2CCC3(CC2)CN(C)CCN3C)c1
Resp: -52.4
